# System: PfAP2-I AP2 domain 3 (GST-tagged)
# ASSAY EXPLANATION: gcPBM binding intensity (ln(normalized median fluorescence intensity)); higher = stronger DNA binding
Over roughly 25,000 sequences, “ln(normalized median fluorescence intensity)” has its median near 7.9; the highest 2% begin near 11. Only a selection was taken, and the highest values are over-represented in it overall.
Assign T whenever gcPBM binding intensity (ln) does not fall below 8; assign F whenever it does.

Example entries and their recorded answers appear below.
- CHAIN SEQUENCE: "ATAATTATTCTTATGGTGCACTGAATATACATGTTG [GTGCAC_site9760]"
  CLASS NAME: "T"
- CHAIN SEQUENCE: "AAAAGGGAAATAAAATAAAAAAAGAAACATATATAG [CACACA_negctrl_site455]"
  CLASS NAME: "F"
- CHAIN SEQUENCE: "ATGTTAATTAATGAGGTGCATTGAATATTTCAATAA"
  CLASS NAME: "T"
- CHAIN SEQUENCE: "AATATTTTTCAATTTCATGTGCATTCATTGAAGTTA [CACACA_negctrl_site1232]"
  CLASS NAME: "T"
- CHAIN SEQUENCE: "GTATTATTATTTTATGCATGTACATTGAATTATATT [TGCATGCA_site34]"
  CLASS NAME: "T"

INPUT: Check this sequence for gcPBM binding intensity (ln) at or above 8: TATTAAAGCACCCATGCACACACACTAAGGAAAAGA [CACACA_site7961]
OUTPUT: T
